# reported inhibition of growth at 10 µM; entries follow
Test system: MCF7
test method notes: Cytotoxicity against human MCF7 cells assessed as growth inhibition at 10 uM after 24 hrs by MTT assay (reference value: 0.15 %)
Assay type: functional
applied conditions: MCF7, 24 h, read-out: GI
Expressed in %, but write only the number.

Study these solved cases before continuing.
smiles_str=O=C1/C(=C/c2ccc(Br)cc2)Oc2ccccc21 experimental_target=MCF7 endpoint_label="inhibition of growth at 10 µM" readout_number=34.5
smiles_str=O=C1/C(=C/c2ccc(F)cc2)Oc2ccccc21 experimental_target=MCF7 endpoint_label="inhibition of growth at 10 µM" readout_number=20.1
smiles_str=COc1ccc(/C=C2\Oc3ccccc3C2=O)cc1 experimental_target=MCF7 endpoint_label="inhibition of growth at 10 µM" readout_number=29.6

Turning now to a further compound:
Return reported inhibition of growth at 10 µM; argument: `Cc1ccc(C(=O)Nc2ccc(S(=O)(=O)O)c3cc(S(=O)(=O)O)cc(S(=O)(=O)O)c23)cc1NC(=O)c1cccc(NC(=O)Nc2cccc(C(=O)Nc3cc(C(=O)Nc4ccc(S(=O)(=O)O)c5cc(S(=O)(=O)O)cc(S(=O)(=O)O)c45)ccc3C)c2)c1`
32
